Biological target: T1, SNTG1, Q9NSN8
T1 sequence (Q9NSN8 52-150, limits assumed, looked up): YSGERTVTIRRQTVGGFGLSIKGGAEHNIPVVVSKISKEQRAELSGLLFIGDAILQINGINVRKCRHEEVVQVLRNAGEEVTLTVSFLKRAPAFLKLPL
Test: holdup assay
Set-up: key: below the threshold = too weak to quantify, mostly under pKd 3.1 to 4
Settings: plain residues with an end cap or a label only (N-terminal biotin on a linker: ado-ado)
parameter: pKd

Please review the following examples before continuing.
# binder, observedMeasurement
measured = [
    ("LRSPRTPSEV [OR10G3, Q8NGC4]", "below the threshold"),
    ("FNSYSLTGYV [CLDN2, P57739]", "below the threshold"),
    ("DDENIRTSDV [PLEKHA2, Q9HB19]", 4.88),
    ("HSGYRLNDYV [CLDN14, O95500]", "below the threshold"),
    ("DDPSTAETVL [ABCA7, Q8IZY2]", 3.66),
]

Give the measured pKd of YRLAQESGLV [ABCC6, O95255] . below the threshold

And for PPYRHRNTVV [ERBB4, Q15303] ? below the threshold

And for YYKRPVQEWV [MMP24, Q9Y5R2] ? below the threshold
